test system: weeds ABUTH, AMATA, AMBEL, CHEAL, ERICA; test: Postemergence herbicide evaluation, overall average % weed control (ABUTH, AMATA, AMBEL, CHEAL, ERICA); format: in vivo; details: post-emergence, 168 h, 560 g ae/ha, 7 DAA; read-out: Overall Ave % Weed Control
Returns: string. Value is satisfied if measured pest or weed control at 560 g/ha is below 70%, and not satisfied if it is greater than or equal to it.

>  <molecule>
O=C(COc1ccc(Cl)cc1Cl)Oc1cccnn1 [Compound E2]

>  <class>
not satisfied

$$$$

Find out if reported pest or weed control at 560 g/ha for N/C(=N\OC(=O)COc1ccc(Cl)cc1Cl)c1ccccc1 [Compound A3] is less than 70%
not satisfied

Find out if reported pest or weed control at 560 g/ha for N/C(=N\OC(=O)COc1ccc(Cl)cc1Cl)c1cccnc1 [Compound A4] is less than 70%
satisfied

Find out if reported pest or weed control at 560 g/ha for O=C(COc1ccc(Cl)cc1Cl)O/N=C/c1ccccc1 [Compound A2] is less than 70%
not satisfied

Find out if reported pest or weed control at 560 g/ha for O=C(COc1ccc(Cl)cc1Cl)O/N=C/c1ccncc1 [Compound A30] is less than 70%
not satisfied
